These data points were gathered from patent US20130131075A1.

study target: cynomolgus BK1-receptor (Macaca fascicularis)
Construct: expressed in transfected cells; host or cells: CHO cells (homogenate)
Sequence (Q3BCU0 whole entry): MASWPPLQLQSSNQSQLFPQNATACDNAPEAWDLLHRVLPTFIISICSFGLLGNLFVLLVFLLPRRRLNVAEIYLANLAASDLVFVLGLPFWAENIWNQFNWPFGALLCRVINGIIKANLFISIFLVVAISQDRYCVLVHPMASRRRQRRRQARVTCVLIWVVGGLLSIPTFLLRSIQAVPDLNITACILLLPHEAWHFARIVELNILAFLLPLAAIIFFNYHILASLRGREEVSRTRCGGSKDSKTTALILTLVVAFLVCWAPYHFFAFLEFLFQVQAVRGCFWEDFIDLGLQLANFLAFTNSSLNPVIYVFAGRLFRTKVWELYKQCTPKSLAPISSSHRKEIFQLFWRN
run description: cynoBK1-receptor binding assay
condition details: at 10 μgmol/L; CHO cells expressing cynomolgus BK1-receptor, radioligand kallidine (DesArg10,Leu9)
Protocol: Description of the Method of Binding the cynoBK1-Receptor CHO cells that express the cynomolgus BK1-receptor are cultivated in “HAM'S F-12 Medium”. […] After the protein content has been determined 200 μl of the homogenate (50 to 250 μg protein/assay) are incubated for 60-180 minutes at ambient temperature with 0.5 to 5.0 nM kallidine (DesArg10,Leu9), [3,4-Prolyl-3,43H(N)] and increasing concentrations of the test substance in a total volume of 250 μl. […]
reported metric: inhibition at 10 µM (%)

compound: O=C1CCC(C(=O)N[C@@]2(C(=O)NCc3ccc(Nc4ccccc4C(F)(F)F)cc3)CCOC2)C1 (some centres unmarked)
unit annotation: %
inhibition at 10 µM: 73
//
compound: O=C(N[C@@]1(C(=O)NCc2ccc(Nc3ccccc3C(F)(F)F)cc2)CCOC1)c1cncs1
unit annotation: %
inhibition at 10 µM: 96
//
compound: O=C(N[C@@]1(C(=O)NCc2ccc(Nc3c(F)cccc3C(F)(F)F)cn2)CCOC1)c1cncnc1
unit annotation: %
inhibition at 10 µM: 88
//
compound: N#Cc1cc(OC(F)(F)F)ccc1Nc1ccc(CNC(=O)C2(NC(=O)c3cncnc3)CC2)cc1
unit annotation: %
inhibition at 10 µM: 69
//
compound: Nc1cccc(C(=O)N[C@@]2(C(=O)NCc3ccc(Nc4ccccc4C(F)(F)F)cc3)CCOC2)n1
unit annotation: %
inhibition at 10 µM: 89
//
compound: CC(NC(=O)C1(NC(=O)c2cncnc2)CC1)c1ccc(Nc2ccc(F)cc2C(F)(F)F)cn1 (centres unmarked)
unit annotation: %
inhibition at 10 µM: 104
//
compound: O=C(N[C@@]1(C(=O)NCc2ncc(Nc3c(F)cccc3C(F)(F)F)cc2F)CCOC1)c1cncnc1
unit annotation: %
inhibition at 10 µM: 101
//
compound: O=C(NC1(C(=O)NCc2ncc(Nc3c(F)cccc3C(F)(F)F)cc2F)CC1)c1cncs1
unit annotation: %
inhibition at 10 µM: 106

(I) COc1cncc(C(=O)N[C@@]2(C(=O)NCc3ccc(Nc4ccccc4C(F)(F)F)cc3)CCOC2)c1
(II) O=C(N[C@@]1(C(=O)NCc2ccc(Nc3ccccc3C(F)(F)F)cc2)CCOC1)c1cc[nH]n1
(III) COc1ccc(N(C)c2ccc(CNC(=O)C3(NC(=O)c4cncnc4)CC3)cc2)cc1
Exercise: Arrange the 3 entries by inhibition at 10 µM so the values rise. A ranking is expressed here by listing the labels in the requested order.
Key: III, II, I
(III: 45%, II: 69%, I: 110%)

(a) COc1ncc(C(=O)NC2(C(=O)NCc3ccc(Nc4ccc(Cl)cc4C(F)(F)F)cn3)CC2)cn1
(b) CN(C)CCCC(=O)NC1(C(=O)NCc2ccc(Nc3ccccc3C(F)(F)F)cc2)CC1
Exercise: Could you please tell me which of these two has the higher inhibition at 10 µM: a or b ? Select an item and report its label.
Key: a
(a: 107%, b: 59%)
